TARGET_ENTITY: Guanine nucleotide-binding protein G(o) subunit alpha (Homo sapiens) + Regulator of G-protein signaling 19 (Homo sapiens) (UniProt P09471+P49795)
Sequence (P09471 whole entry, looked up): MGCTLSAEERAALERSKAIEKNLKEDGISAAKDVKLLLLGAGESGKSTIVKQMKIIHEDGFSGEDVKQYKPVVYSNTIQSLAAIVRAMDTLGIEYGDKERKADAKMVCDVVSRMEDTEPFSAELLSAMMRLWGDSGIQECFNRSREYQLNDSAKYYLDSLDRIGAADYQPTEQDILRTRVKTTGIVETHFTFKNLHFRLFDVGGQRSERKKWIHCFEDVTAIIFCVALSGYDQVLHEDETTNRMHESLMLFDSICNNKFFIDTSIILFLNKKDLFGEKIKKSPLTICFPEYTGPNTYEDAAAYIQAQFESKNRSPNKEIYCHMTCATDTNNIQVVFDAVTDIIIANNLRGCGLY
Sequence (P49795 whole entry, looked up): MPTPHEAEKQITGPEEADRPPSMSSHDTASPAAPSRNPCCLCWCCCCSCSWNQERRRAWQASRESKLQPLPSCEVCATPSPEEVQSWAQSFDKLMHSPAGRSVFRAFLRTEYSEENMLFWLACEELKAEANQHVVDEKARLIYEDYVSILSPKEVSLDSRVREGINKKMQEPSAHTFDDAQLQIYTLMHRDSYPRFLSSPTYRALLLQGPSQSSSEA
EXPERIMENT_SUMMARY: modulators of human RGS19-Gαo interaction – biochemical, multiplexed bead flow cytometry (AID 1440);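 note: fluorescent Galpha o activated by aluminum fluoride binding bead-coupled RGS19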
PROTOCOL_CONDITIONS: RGS19-Galphao binding, at 10 µM
Screen size: about 220,000 compounds; fewer than 10 were called active. About 92% were inconclusive and are not listed. The list is a sample of the results.
Can you tell me binding response (% of control) for the items I'm about to list?
Your answer should be a plain number; it is taken to be in %.

Query: Report measured binding response (% of control); entry is Fc1ccc(CNC(=S)Nc2ccccc2Cl)cc1
Reply: -28

Query: Answer with the recorded binding response (% of control) for the compound listed here: CCN(CC(=O)Nc1ccccc1OC)C(=O)C1CC2C=CC1C2 (centres undefined)
Reply: 180

Query: Answer with the recorded binding response (% of control) of Cc1ccc(NC(=O)N(Cc2ccco2)Cc2cc3cc(C)cc(C)c3nc2Cl)cc1 only.
Reply: 92.8

Query: Report measured binding response (% of control); entry is Cc1onc(-c2c(Cl)cccc2Cl)c1C(=O)Nn1cnnc1
Reply: 102

Query: Return binding response (% of control) (reported value) for this compound: Cc1ccc(S(=O)(=O)N(Cc2ccccc2)Cc2ccco2)cc1
Reply: 92.7

Query: Please list binding response (% of control) recorded for the compound COC(=O)c1cc(OC)c(OC)cc1NC(=O)CCC1CCCC1
Reply: 107

Query: Return value of binding response (% of control) for input Cc1ccc(S(=O)(=O)N2CCSC2)cc1C , no commentary.
Reply: 113

Query: Note down binding response (% of control) recorded for CC(C)SCCCCOc1ccc2ccccc2c1
Reply: 88.9

Query: Determine from records and report binding response (% of control) for O=C(COc1ccc2ccccc2c1)Nc1cccc2cccnc12
Reply: 110

Query: Give me measured binding response (% of control), please, for this compound: CNC(=O)c1c(N)sc2c1CCCCC2
Reply: 60.7

Query: State, in one line, measured binding response (% of control) of C/C(=N\NC(=O)CSc1nc2nc(C)cc(C)n2n1)c1ccccc1
Reply: 96.1

Query: Respond only with binding response (% of control) recorded for O=C(CN1C(=O)S/C(=C/c2cccs2)C1=O)N1CCOCC1
Reply: 99.9

Query: Tell us which binding response (% of control) value is on record for COc1cccc(OC)c1C(=O)Nc1ccc(NC(=O)c2ccco2)cc1
Reply: 112

Query: Entry CCCN(CCC)CCOc1cc(C)ccc1C(C)C needs its binding response (% of control) filled in; supply it.
Reply: 116

Query: Identify measured binding response (% of control) associated with C[C@H](NS(=O)(=O)c1ccccc1F)C(=O)OCC(=O)N1CCc2ccccc21
Reply: 106

Query: Could you please provide reported binding response (% of control) for COc1ccccc1N(C(C)=O)C1SC(=O)N(c2ccccc2)C1=O (centres undefined) ? Thanks!
Reply: 70.1

Query: Consider the compound Cc1ccc(C(=O)NC(=S)N2CCN(C)CC2)cc1 and give its recorded binding response (% of control).
Reply: 97.8

Query: Identify measured binding response (% of control) corresponding to O=C(NC1(C(F)(F)F)C(=O)Nc2c1c(=O)[nH]c(=O)n2Cc1ccccc1)c1ccc(Cl)cc1 (centres undefined)
Reply: 108

Query: State its binding response (% of control): CCN1CCCC1CNC(=O)C(NC(=O)C1CCC(C)CC1)C(C)C (centres undefined)
Reply: 107

Query: Output measured binding response (% of control) for this item: CC(C)(C#N)NC(=O)c1ccco1
Reply: 87.8

Query: Please report binding response (% of control) for the following compound: O=C1Nc2ccccc2/C1=C\c1cccn1-c1ccc(OC(F)(F)F)cc1
Reply: 63.3

Query: Give binding response (% of control) for the following compound: COC(=O)c1cc(OC)c(OC)cc1NC(=S)N1CCCC(CO)C1 (centres undefined)
Reply: 98.1

Query: Let me know recorded binding response (% of control) for CCOCCCNC(=O)C(c1ccc(Cl)cc1)N(Cc1cccs1)C(=O)CNC(C)=O (centres undefined) , thanks.
Reply: 90

Query: Please look at this compound and report its binding response (% of control): CCNC(=S)NNC(=O)Nc1ccccc1
Reply: 89.6

---

Can you tell me binding response (% of control) for the items I'm about to list?
TARGET_ENTITY: Guanine nucleotide-binding protein G(o) subunit alpha (Homo sapiens) + Regulator of G-protein signaling 19 (Homo sapiens) (UniProt P09471+P49795)
EXPERIMENT_SUMMARY: modulators of human RGS19-Gαo interaction – biochemical, multiplexed bead flow cytometry (AID 1440);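 note: fluorescent Galpha o activated by aluminum fluoride binding bead-coupled RGS19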
PROTOCOL_CONDITIONS: RGS19-Galphao binding, at 10 µM
Screen size: about 220,000 compounds; fewer than 10 were called active. About 92% were inconclusive and are not listed. These entries were drawn from the full list.
Just the number please, in %, no unit attached.

Query: Indicate its recorded binding response (% of control); the molecule in question is O=C(Nc1cccc(-c2cnc3ccccc3n2)c1)c1ccco1
Reply: 147

Query: Supply binding response (% of control) value. Item: O=C(NCC(c1cccnc1)N1CCN(c2ccc(F)cc2)CC1)C1CCCCC1 (stereo not drawn)
Reply: 104

Query: Quick one: give measured binding response (% of control) for COC(=O)c1sccc1-c1ccc(C(=O)Nc2ccccc2)o1
Reply: 122

Query: Read the entry CN(CCCC(=O)NCc1ccco1)S(=O)(=O)c1ccccc1 and write its reported binding response (% of control).
Reply: 98.9

Query: For the molecule CCc1ccc(OC)c(S(=O)(=O)NCCOc2ccccc2)c1 , report binding response (% of control).
Reply: 41.2

Query: Tell me binding response (% of control) reported for Cc1nc2ccccc2c(=O)n1NC(=O)COc1ccccc1
Reply: 103

Query: Give recorded binding response (% of control). CCN(CC)C(=O)c1sc(NC(=O)c2cccnc2)c(C(=O)OC)c1C
Reply: 128

Query: Complete the entry with binding response (% of control) for CCOC(=O)c1c(C)n(-c2ccc(OC)cc2)c2c(C/C(C)=N/O)c(Br)c(OC)c(O)c12
Reply: 120

Query: Using known records, supply binding response (% of control) for CCOC(=O)c1nnc(-c2cccs2)nc1NC(C)C
Reply: 220

Query: Respond only with binding response (% of control) recorded for CC(C)CC1=C/C(=C/c2ccc(-c3ccccc3)o2)C(=O)O1
Reply: 71.1

Query: Indicate its recorded binding response (% of control); the molecule in question is COC(=O)c1ccccc1NC(=S)NC(=O)COc1ccc(C(C)C)cc1
Reply: 284

Query: Indicate the recorded binding response (% of control) value for this molecule: O=C(CN1CCCCCC1=O)OCc1ncc(-c2ccccc2)o1
Reply: 96.5

Query: Check the records and state binding response (% of control) for O=C(Nc1cccc(C(F)(F)F)c1)c1cc2c(s1)-c1ccccc1OC2
Reply: 119

---

TARGET_ENTITY: Guanine nucleotide-binding protein G(o) subunit alpha (Homo sapiens) + Regulator of G-protein signaling 19 (Homo sapiens) (UniProt P09471+P49795)
EXPERIMENT_SUMMARY: modulators of human RGS19-Gαo interaction – biochemical, multiplexed bead flow cytometry (AID 1440);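 note: fluorescent Galpha o activated by aluminum fluoride binding bead-coupled RGS19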
PROTOCOL_CONDITIONS: RGS19-Galphao binding, at 10 µM
Fewer than 10 of roughly 220,000 compounds were called active. Not shown: some 92% with an inconclusive outcome. These entries were drawn from the full list.
Would you kindly list binding response (% of control) for each of these compounds?
The reply should be a number in %, with the unit left off.

Query: Dear colleague, please send me the reported binding response (% of control) for COc1cc(/C=N/NC(=O)Cc2ccccc2)ccc1Oc1ccc([N+](=O)[O-])cc1[N+](=O)[O-] when you can.
Reply: 107

Query: # return recorded binding response (% of control) for input Cc1ccc(CNCC2CCCO2)o1 (stereo not given)
Reply: 96.8

Query: Entry CCOC(=O)C1=C(c2ccccc2)NC(=O)NC1c1ccc(OCC#N)c(OC)c1 (stereo not given) needs its binding response (% of control) filled in; supply it.
Reply: 119

Query: Identify measured binding response (% of control) corresponding to Cn1cnnc1SCC(=O)N1N=C2/C(=C/c3ccco3)CCCC2C1c1ccco1 (stereo not given)
Reply: 61.5

Query: Identify measured binding response (% of control) associated with CCCC(C)NC(=O)Cc1ccccc1[N+](=O)[O-] (stereo not given)
Reply: 110

Query: Tell me measured binding response (% of control) for CC(=O)N(c1ccc(C(C)C)cc1)C1C=CS(=O)(=O)C1 (stereo not given) please.
Reply: 103

Query: Answer with the recorded binding response (% of control) of COc1ccc(C)cc1S(=O)(=O)N(CC(=O)O)c1ccc(F)cc1 only.
Reply: 102

Query: Note down binding response (% of control) recorded for CCOC(=O)N1CCC(NC(=O)CCCN2C(=O)CSc3ncccc32)CC1
Reply: 353

Query: Give reported binding response (% of control) value for Cc1ccc(NC(=O)c2cc(-n3cnnc3)ccc2Cl)cc1
Reply: 100

Query: Could you please provide reported binding response (% of control) for OC1C2(Cc3ccccc3)CN3CCN(C2)CC1(Cc1ccccc1)C3 (stereo not given) ? Thanks!
Reply: 71.2

Query: For the compound Cc1cc(C)nc(SCC(=O)N2CCC(C(N)=O)CC2)n1 , report binding response (% of control).
Reply: 105

Query: Using the record for O=C(NCCCCC(NC(=O)c1ccc([N+](=O)[O-])cc1)C(=O)O)c1ccc([N+](=O)[O-])cc1 (stereo not given) , state its measured binding response (% of control).
Reply: 95.5

Query: Look up binding response (% of control) of CC(C)(C)OC(=O)N1CCOCCOCCNCCOCCOCC1 and report it.
Reply: 98.6

Query: Give recorded binding response (% of control). O=C(c1ccco1)N1CCC(c2nc(-c3ccc(F)cc3)no2)CC1
Reply: 75.6

Query: In one line, give reported binding response (% of control) of the entry COc1ccc(-c2nn[nH]n2)cc1OC .
Reply: 116

Query: Quick one: give measured binding response (% of control) for O=C(NCc1ccco1)C1CCN(S(=O)(=O)N2CCC3(CC2)OCCO3)CC1
Reply: 45.9

Query: Please indicate binding response (% of control) recorded for O=C(Nc1ccccc1N1CCOCC1)c1cccc([N+](=O)[O-])c1
Reply: 123

Query: Indicate its recorded binding response (% of control); the compound in question is O=C1COc2ccc(C(=O)NCc3ccc4c(c3)OCO4)cc2N1
Reply: 104

Query: Identify measured binding response (% of control) associated with Cc1ccc(S(=O)(=O)c2c(N)n(Cc3ccco3)c3nc4ccccc4nc23)cc1C
Reply: 92.1

Query: Please give measured binding response (% of control) of the following entry: Cn1cc(CN(CCCN2CCOCC2)C(=S)Nc2cccc(Cl)c2)c2ccccc21
Reply: -17

Query: Return the recorded binding response (% of control) value; entry: Cc1ccc(Cn2ncn3c(cc4ccccc43)c2=O)cc1
Reply: 87.2

Query: Could you please provide reported binding response (% of control) for O=C(O)c1cc(-c2ccccn2)n[nH]1 ? Thanks!
Reply: 106

Query: Give the reported binding response (% of control) for this compound. CCC(=O)N1CCc2cc(S(=O)(=O)NC(Cc3ccccc3)C(=O)Nc3nccs3)ccc21 (stereo not given)
Reply: -46.3

Query: Entry Cc1cc(=O)n2[nH]c(SCc3ccccc3)nc2n1 needs its binding response (% of control) filled in; supply it.
Reply: 102

Query: Give recorded binding response (% of control). CCOC(=O)C1=C(c2ccccc2)OC(N)=C(C#N)C1C(C)C (stereo not given)
Reply: 109

Query: Consider the compound CCOC(=O)N1CCN(C(=O)CCNS(=O)(=O)c2cc(Br)cnc2N)CC1 and give its recorded binding response (% of control).
Reply: 93.9

Query: Return binding response (% of control) for the following compound: C/C(CC(=O)Nc1cccc(Cl)c1C)=N\NC(=O)C(=O)NCC(C)C
Reply: 105

Query: Report binding response (% of control) for COc1ccc(-c2nc(-c3cccs3)c(-c3cccs3)[nH]2)cc1O
Reply: 102

Query: Return binding response (% of control) (reported value) for this compound: CC(NS(=O)(=O)c1cccc(Cl)c1)C(=O)Nc1ccc(-c2nc3ccccc3s2)cc1 (stereo not given)
Reply: 115

Query: Specify reported binding response (% of control) for the compound shown: CC(C)(C)NC(=O)c1ccc2nsnc2c1
Reply: 141

Query: Let me know recorded binding response (% of control) for Cc1ccc(Cl)c(OCCN2CCCC(C)C2)c1 (stereo not given) , thanks.
Reply: 118

Query: Name the recorded binding response (% of control) of the compound listed here: Cc1ccc(Cl)c(NC(=O)COC(=O)c2ccccc2C(=O)c2ccc(Cl)c([N+](=O)[O-])c2)c1Cl
Reply: 115

Query: Retrieve binding response (% of control) measured for CC(=O)Nc1ccc(NC(=O)Oc2ccccc2)cc1 and print it.
Reply: 99.1

Query: Output binding response (% of control) of CCOc1c2ccc(C(=O)NCc3ccc(OC)cc3)cc2nn1CCOC
Reply: 92.2

Query: Indicate its recorded binding response (% of control); the compound in question is CCOc1ccc(-c2nnc(N)o2)cc1
Reply: 71.8

Query: Specify binding response (% of control) for Cc1nn(Cc2ccc(Cl)cc2)c(C)c1N and stop.
Reply: 8.58

Query: Supply binding response (% of control) value. Item: CCOc1ccc(-c2c(C(=O)N/N=C/c3ccccc3)nnn2-c2nonc2N)cc1
Reply: 91.3

Query: Determine from records and report binding response (% of control) for COc1ccc(CC(=O)OCc2cc3ccccc3[nH]c2=O)cc1
Reply: 90.7

Query: Supply measured binding response (% of control) of Cc1cc2cc(CN(Cc3ccco3)C(=O)NCc3ccccc3)c(=O)[nH]c2cc1C in your reply.
Reply: 98.1

Query: Using the record for C=CCn1c2ccccc2c2nnc(SCN3C(=O)c4ccccc4C3=O)nc21 , state its measured binding response (% of control).
Reply: 77.7

Query: Find the measured binding response (% of control) of O=C(CSc1nc2ccccc2c(=O)n1CC1CCCO1)NCC1CCCO1 (stereo not given) and report it.
Reply: 94.2

Query: Annotate the compound COC(=O)CCC(=O)Nc1cccc(C(=O)Nc2cccc(Cl)c2)c1 with its measured binding response (% of control).
Reply: 100

Query: State, in one line, measured binding response (% of control) of Cc1ccc(C(=O)CSc2nc(N)cc(=O)[nH]2)cc1
Reply: 64.8

Query: Check the records and state binding response (% of control) for O=C(Nc1nc(N2C(=O)c3ccccc3C2=O)n(-c2ccccc2)n1)c1ccccc1
Reply: -19.9

Query: Query binding response (% of control) for Cc1ccc2c(CN3CCN(CCO)CC3)cc(=O)oc2c1C
Reply: 111
